Target: T1, biotinylated TGPAvi (Galaxea fascicularis (coral), biotin on the Avi-tag (BirA))
T1 chain 1: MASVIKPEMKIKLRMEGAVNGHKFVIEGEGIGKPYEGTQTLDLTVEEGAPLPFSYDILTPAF
T1 chain 2: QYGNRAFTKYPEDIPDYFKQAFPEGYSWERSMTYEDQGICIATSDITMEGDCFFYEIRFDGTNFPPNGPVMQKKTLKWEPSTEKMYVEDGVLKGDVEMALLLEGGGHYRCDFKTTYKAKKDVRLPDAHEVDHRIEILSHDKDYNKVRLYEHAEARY
Test: BLI
PROPERTY LABEL: koff (s⁻¹)
Numbers only; they are read as s⁻¹.

Some binders with recorded koff:
sybody 68 (VHH) VHH: QVQLVESGGGLVQAGGSLRLSCAASGFPVNAVTMWWYRQAPGKEREWVAAIKSQGAGTWYADSVKGRFTISRDNAKNTVYLQMNSLKPEDTAVYYCHVYVGAYRYEGRGTQVTVS = 0.0012
sybody 44 (VHH) VHH: QVQLVESGGGLVQAGGSLRLSCAASGFPVGRASMWWYRQAPGKEREWVAAISSYGWVTAYADSVKGRFTISRDNAKNTVYLQMNSLKPEDTAVYYCEVSVGTGYRGQGTQVTVS = 0.00085
sybody 92 (VHH) VHH: QVQLVESGGGLVQAGGSLRLSCAASGFPVDTQWMHWYRQAPGKEREWVAAISSTGRSTFYADSVKGRFTISRDNAKNTVYLQMNSLKPEDTAVYYCTVYVGNRYRGQGTQVTVS = 0.00066

// recorded koff for sybody 66 (VHH) VHH: QVQLVESGGGLVQAGGSLRLSCAASGFPVMENSMYWYRQAPGKEREWVAAITSQGSWTWYADSVKGRFTISRDNAKNTVYLQMNSLKPEDTAVYYCHVSVGTNYTGQGTQVTVS : 0.0013
